Cited source: patent US20260042764A1

TESTED_SYSTEM: Avi-KRAS G12V (2-169) GTP/RAF1 RBD-3xFLAG (51-131) (Homo sapiens, UniProt P01116, G12V)
Construct: Avi-KRAS G12V (2-169)
Sequence (P01116 2-169 isoform P01116-2 G12V): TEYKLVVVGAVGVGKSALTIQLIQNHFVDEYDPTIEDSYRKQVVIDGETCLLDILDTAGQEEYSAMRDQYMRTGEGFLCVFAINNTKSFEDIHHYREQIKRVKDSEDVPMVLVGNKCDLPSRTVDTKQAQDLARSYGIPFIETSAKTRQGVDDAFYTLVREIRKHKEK
PROTOCOL_DESCRIPTION: Raf1-KRAS G12V-GTP disruption HTRF assay (Biological Example 3)
Assay type: binding
RECORDED_CONDITIONS: KRAS G12V, GTP-loaded
Experimental: Biological Example 3: Disrupting RAS-Effector Binding HTRF Assay A protein:protein interaction (PPI) Homogeneous Time Resolved Fluorescence (HTRF) assay was used to determine the effectiveness of compounds in disrupting KRAS protein and effector (RAF1) binding. […] Plates were analyzed on an Envision plate reader using the following setting: Excitation 320 nm, Bandwidth 75 nm; Emission 615 nm, Bandwidth 85 nm; Gain 100%; Flashes 100; Lag 60 μs. […] Data was plotted and analyzed using Prism 8. […]
Listing of recorded IC50 by entry.

{"columns": ["COMPOUND", "IC50"],
 "data": [
  ["N#Cc1c(N)sc2c(F)ccc(-c3c(C(F)(F)F)cc4c(N5C[C@H]6C[C@@H]5CO6)nc(OC[C@@]56CCCN5C[C@H](F)C6)nc4c3F)c12 (single isomer, unassigned) [Compound 287]", "0.1 to 1 µM"],
  ["N#Cc1c(N)sc2c(F)ccc(-c3c(C(F)(F)F)cc4c(N5CCn6nc(C(=O)N7CCOCC7)cc6C5)nc(OCC56CCCN5CC(F)C6)nc4c3F)c12 (stereo not drawn)", "0.1 to 1 µM"],
  ["CCN(c1nc(OC[C@@]23CCCN2C[C@H](F)C3)nc2c(F)c(-c3ccc(F)c4sc(N)c(C#N)c34)c(C(F)(F)F)cc12)[C@@H]1CCN(c2ccccn2)C1", "> 10 µM"],
  ["CCN(c1nc(OC[C@@]23CCCN2C[C@H](F)C3)nc2c(F)c(-c3ccc(F)c4sc(N)c(C#N)c34)c(C(F)(F)F)cc12)[C@H]1CCN(C(=O)[C@H]2CCO2)[C@H]1C (atropisomer, axis not shown)", "1 to 10 µM"],
  ["CCN(c1nc(OC[C@@]23CCCN2C[C@H](F)C3)nc2c(F)c(-c3ccc(F)c4sc(N)c(C#N)c34)c(C(F)(F)F)cc12)[C@H]1CCN(C(=O)C2CC2)[C@@H]1COC (atropisomer, axis not shown)", "0.1 to 1 µM"],
  ["CCN(c1nc(OC[C@@]23CCCN2C[C@H](F)C3)nc2c(F)c(-c3ccc(F)c4sc(N)c(C#N)c34)c(C(F)(F)F)cc12)[C@H]1C[C@H](C(=O)N(C)C)C1 (atropisomer, axis not shown)", "0.1 to 1 µM"],
  ["CCN(c1nc(OC[C@@]23CCCN2C[C@H](F)C3)nc2c(F)c(-c3ccc(F)c4sc(N)c(C#N)c34)c(C(F)(F)F)cc12)[C@H]1CCN(C(=O)O[C@H]2CO[C@H]3OCC[C@H]32)C1 (atropisomer, axis not shown)", "0.1 to 1 µM"],
  ["CCN(c1nc(OC[C@@H]2C[C@@H](OC)CN2C)nc2c(F)c(-c3ccc(F)c4sc(N)c(C#N)c34)c(C(F)(F)F)cc12)[C@H]1CCN(C(=O)C(C)C)C1", "1 to 10 µM"],
  ["CCN(c1nc(OC[C@@]23CCCN2C[C@H](F)C3)nc2c(F)c(-c3ccc(F)c4sc(N)c(C#N)c34)c(C(F)(F)F)cc12)[C@H]1CCN(C(=O)C2CC2(F)F)[C@@H]1C (stereo partly drawn)", "0.1 to 1 µM"],
  ["CN(Cc1cccnn1)c1nc(OC[C@@]23CCCN2C[C@H](F)C3)nc2c(F)c(-c3ccc(F)c4sc(N)c(C#N)c34)c(C(F)(F)F)cc12 (atropisomer, axis not shown)", "0.1 to 1 µM"],
  ["CCN(c1nc(OC[C@@]23CCCN2C[C@H](F)C3)nc2c(F)c(-c3ccc(F)c4sc(N)c(C#N)c34)c(C(F)(F)F)cc12)[C@H]1CCN(C(=O)c2ncoc2C)C1 (atropisomer, axis not shown)", "0.1 to 1 µM"],
  ["Cc1c(C(=O)N(C)C)nn2c1CN(c1nc(OC[C@@]34CCCN3C[C@H](F)C4)nc3c(F)c(-c4ccc(F)c5sc(N)c(C#N)c45)c(C(F)(F)F)cc13)CC2 (atropisomer, axis not shown; (aS)) [Compound 590]", "0.1 to 1 µM"],
  ["CCN(c1nc(OC[C@@]23CCCN2C[C@H](F)C3)nc2c(F)c(-c3ccc(F)c4sc(N)c(C#N)c34)c(C(F)(F)F)cc12)[C@H]1CCN(C(=O)N2CC(F)C2)[C@H]1C (atropisomer, axis not shown)", "1 to 10 µM"],
  ["N#Cc1c(N)sc2c(F)ccc(-c3c(C(F)(F)F)cc4c(N5CCC(c6cccnc6)C5)nc(OC[C@@]56CCCN5C[C@H](F)C6)nc4c3F)c12 (stereo partly drawn)", "> 10 µM"],
  ["CCN(c1nc(OC[C@@]23CCCN2C[C@H](F)C3)nc2c(F)c(-c3ccc(F)c4sc(N)c(C#N)c34)c(C(F)(F)F)cc12)[C@H]1CCN(C(=O)[C@@H]2C[C@H]2F)[C@@H]1C (atropisomer, axis not shown)", "0.1 to 1 µM"],
  ["Cc1c(C(=O)N(C)C)nn2c1CN(c1nc(OC[C@@]34CCCN3C[C@H](F)C4)nc3c(F)c(-c4ccc(F)c5sc(N)c(C#N)c45)c(C(F)(F)F)cc13)CC2 [Compound 501]", "0.1 to 1 µM"],
  ["N#Cc1c(N)sc2c(F)ccc(-c3c(C(F)(F)F)cc4c(N5CCCOCC5)nc(OC[C@@]56CCCN5C[C@H](F)C6)nc4c3F)c12", "0.1 to 1 µM"],
  ["CCN(c1nc(OC[C@@]23CCCN2C[C@H](F)C3)nc2c(F)c(-c3ccc(F)c4sc(N)c(C#N)c34)c(C(F)(F)F)cc12)[C@@H]1C[C@H](C)N(C(C)=O)C1 (atropisomer, axis not shown)", "0.1 to 1 µM"]
]}
